Tested on: NCTC-2544
Assay: Cytotoxicity against human NCTC-2544 cells assessed as reduction in cell viability at 10 uM by MTT assay
Format: cell-based
Details: nctc-2544, 10 µM
metric-name: Activity

Below, 5 compounds whose answers are already recorded.
* O=C(O)c1ccc(CN2C(=O)/C(=C/c3ccc(Oc4ccccc4)cc3)SC2=S)cc1 | Non-Toxic
* O=C(O)c1ccc(CN2C(=O)/C(=C/c3ccc(OCc4ccccc4)cc3)S/C2=N\c2ccc(F)cc2)cc1 | Toxic
* O=C(O)c1ccc(CN2C(=O)/C(=C/c3cccc(OCCc4ccccc4)c3)SC2=S)cc1 | Toxic
* O=C(O)c1ccc(CN2C(=O)/C(=C/c3ccc(OCc4ccccc4)cc3)SC2=S)cc1 | Non-Toxic
* O=C(O)c1ccc(CN2C(=O)/C(=C/c3ccc(OCCc4ccccc4)cc3)S/C2=N\c2ccc(F)cc2)cc1 | Toxic

Value lookup for Activity; key = O=C(O)c1ccc(CN2C(=O)/C(=C/c3cccc(OCCc4ccccc4)c3)S/C2=N\c2ccc(F)cc2)cc1
Toxic

Value lookup for Activity; key = O=C(O)c1ccc(CN2C(=O)/C(=C/c3cccc(Oc4ccccc4)c3)S/C2=N\c2ccc(F)cc2)cc1
Non-Toxic

Value lookup for Activity; key = O=C(O)c1ccc(CN2C(=O)/C(=C/c3cccc(Oc4ccccc4)c3)SC2=S)cc1
Non-Toxic

Value lookup for Activity; key = O=C(O)c1ccc(CN2C(=O)/C(=C/c3ccc(Oc4ccccc4)cc3)S/C2=N\c2ccc(F)cc2)cc1
Toxic

Value lookup for Activity; key = O=C(O)c1ccc(CN2C(=O)/C(=C/c3ccc(OCCc4ccccc4)cc3)SC2=S)cc1
Toxic

Value lookup for Activity; key = O=C(O)c1ccc(CN2C(=O)/C(=C/c3cccc(OCc4ccccc4)c3)SC2=S)cc1
Non-Toxic

Value lookup for Activity; key = O=C(O)c1ccc(CN2C(=O)/C(=C/c3cccc(OCc4ccccc4)c3)S/C2=N\c2ccc(F)cc2)cc1
Toxic

Entry source: ChEMBL document CHEMBL3994583
